- Measurement conditions: akkermansia muciniphila, 12 h, 2 µM
- Description: The drug is tested on Akkermansia muciniphila strain: ATCC BAA-835 for biotransformation. The drug concentrations were measured before and after a 12-h incubation by liquid-chromatography-coupled mass spectrometry (LC–MS)

Compound: CCCCCCOC(=O)/N=C(/N)c1ccc(NCc2nc3cc(C(=O)N(CCC(=O)OCC)c4ccccn4)ccc3n2C)cc1.CS(=O)(=O)O [DABIGATRAN ETEXILATE MESYLATE]
Bacterial Biotransformation: Compound NOT metabolized
//
Compound: CC(C)(Oc1ccc(CCNC(=O)c2ccc(Cl)cc2)cc1)C(=O)O [BEZAFIBRATE]
Bacterial Biotransformation: Compound metabolized
//
Compound: Cc1ccc(/C(=C\CN2CCCC2)c2ccccn2)cc1
Bacterial Biotransformation: Compound NOT metabolized
//
Compound: Cc1cc(C)cc(OCC2CNC(=O)O2)c1 (configuration not stated)
Bacterial Biotransformation: Compound NOT metabolized
//
Compound: CCOc1cc(CC(=O)N[C@@H](CC(C)C)c2ccccc2N2CCCCC2)ccc1C(=O)O [REPAGLINIDE]
Bacterial Biotransformation: Compound NOT metabolized
//
Compound: CC1=C(CC(=O)O)c2cc(F)ccc2/C1=C\c1ccc([S+](C)[O-])cc1 (configuration not stated)
Bacterial Biotransformation: Compound NOT metabolized
//
Compound: CN(C)CCOC(c1ccc(Cl)cc1)c1ccccn1.O=C(O)/C=C\C(=O)O (configuration not stated) [CARBINOXAMINE MALEATE]
Bacterial Biotransformation: Compound NOT metabolized
//
Compound: Nc1nnc(-c2cccc(Cl)c2Cl)c(N)n1
Bacterial Biotransformation: Compound NOT metabolized
//
Compound: C#C[C@]1(OC(C)=O)CC[C@H]2[C@@H]3CCC4=CC(=O)CC[C@@H]4[C@H]3CC[C@@]21C [NORETHINDRONE ACETATE]
Bacterial Biotransformation: Compound metabolized
//
Compound: CN(C/C=C/C#CC(C)(C)C)Cc1cccc2ccccc12
Bacterial Biotransformation: Compound NOT metabolized
//
Compound: Cc1nc(Nc2ncc(C(=O)Nc3c(C)cccc3Cl)s2)cc(N2CCN(CCO)CC2)n1.O
Bacterial Biotransformation: Compound metabolized
//
Compound: C=C[C@H]1CN2CC[C@H]1C[C@H]2[C@H](O)c1ccnc2ccc(OC)cc12.C=C[C@H]1CN2CC[C@H]1C[C@H]2[C@H](O)c1ccnc2ccc(OC)cc12.O.O.O=S(=O)(O)O [QUININE SULFATE]
Bacterial Biotransformation: Compound NOT metabolized
//
Compound: CC(CN(C)C)CN1c2ccccc2CCc2ccccc21.O=C(O)/C=C\C(=O)O (configuration not stated) [TRIMIPRAMINE MALEATE]
Bacterial Biotransformation: Compound NOT metabolized
//
Compound: CCN(CC)C(C)CN1c2ccccc2Sc2ccccc21 (configuration not stated)
Bacterial Biotransformation: Compound NOT metabolized
//
Compound: CCc1oc2ccccc2c1C(=O)c1cc(Br)c(O)c(Br)c1
Bacterial Biotransformation: Compound NOT metabolized
//
Compound: CCOC(=O)C1=C(C)NC(C)=C(C(=O)OC)C1c1cccc([N+](=O)[O-])c1 (configuration not stated)
Bacterial Biotransformation: Compound metabolized
//
Compound: COc1ccc2[nH]c([S+]([O-])Cc3ncc(C)c(OC)c3C)nc2c1 (configuration not stated)
Bacterial Biotransformation: Compound metabolized
//
Compound: Br.CN(C)CCCC1(c2ccc(F)cc2)OCc2cc(C#N)ccc21 (configuration not stated) [CITALOPRAM HYDROBROMIDE]
Bacterial Biotransformation: Compound NOT metabolized
//
Compound: CN1CCN(CC/C=C2/c3ccccc3Sc3ccc(S(=O)(=O)N(C)C)cc32)CC1
Bacterial Biotransformation: Compound NOT metabolized
//
Compound: CN1CCC(=C2c3ccccc3CC(=O)c3sccc32)CC1.O=C(O)/C=C/C(=O)O [KETOTIFEN FUMARATE]
Bacterial Biotransformation: Compound NOT metabolized
//
Compound: COC(=O)[C@H](c1ccccc1Cl)N1CCc2sccc2C1.O=S(=O)(O)O [CLOPIDOGREL BISULFATE]
Bacterial Biotransformation: Compound NOT metabolized
//
Compound: CCC1(c2ccc(N)cc2)CCC(=O)NC1=O (configuration not stated) [AMINOGLUTETHIMIDE]
Bacterial Biotransformation: Compound NOT metabolized
//
Compound: CNC(=C[N+](=O)[O-])NCCSCc1csc(CN(C)C)n1
Bacterial Biotransformation: Compound NOT metabolized
//
Compound: COc1cc2nc(N3CCN(C(=O)C4COc5ccccc5O4)CC3)nc(N)c2cc1OC.CS(=O)(=O)O (configuration not stated) [DOXAZOSIN MESYLATE]
Bacterial Biotransformation: Compound NOT metabolized
//
Compound: CC(=O)CC(c1ccccc1)c1c(O)c2ccccc2oc1=O (configuration not stated)
Bacterial Biotransformation: Compound NOT metabolized
//
Compound: CSc1ccc2c(c1)C(N1CCN(C)CC1)Cc1ccccc1S2.O=C(O)/C=C\C(=O)O (configuration not stated)
Bacterial Biotransformation: Compound NOT metabolized
//
Compound: CO[C@]12C[C@@H](COC(=O)c3cncc(Br)c3)CN(C)[C@@H]1Cc1cn(C)c3cccc2c13
Bacterial Biotransformation: Compound NOT metabolized
//
Compound: C#C[C@]1(OC(C)=O)CC[C@H]2[C@@H]3CCC4=C[C@@H](OC(C)=O)CC[C@@H]4[C@H]3CC[C@@]21C [ETHYNODIOL DIACETATE]
Bacterial Biotransformation: Compound NOT metabolized
//
Compound: CC(=O)Oc1ccc(C(c2ccc(OC(C)=O)cc2)c2ccccn2)cc1
Bacterial Biotransformation: Compound metabolized
//
Compound: CN1CCC(=C2c3ccccc3CCc3cccnc32)CC1.O=C(O)/C=C\C(=O)O.O=C(O)/C=C\C(=O)O [AZATADINE MALEATE]
Bacterial Biotransformation: Compound NOT metabolized
//
Compound: O=C(Nc1ccccc1)OCC(CN1CCCCC1)OC(=O)Nc1ccccc1 (configuration not stated)
Bacterial Biotransformation: Compound NOT metabolized
//
Compound: O=c1[nH]c2ccccc2n1CCCN1CCC(n2c(=O)[nH]c3cc(Cl)ccc32)CC1
Bacterial Biotransformation: Compound NOT metabolized

---

- Measurement conditions: segatella copri, 12 h, 2 µM
- Description: The drug is tested on Prevotella copri strain: DSM18205 for biotransformation. The drug concentrations were measured before and after a 12-h incubation by liquid-chromatography-coupled mass spectrometry (LC–MS)
Observation type: Bacterial Biotransformation

Molecule: CC(C)NCC(O)COc1ccc(CC(N)=O)cc1 (centres undefined)
Value reported: Compound NOT metabolized
//
Molecule: CNCC[C@H](Oc1cccc2ccccc12)c1cccs1
Value reported: Compound metabolized
//
Molecule: CC(=O)Oc1ccc(C(c2ccc(OC(C)=O)cc2)c2ccccn2)cc1
Value reported: Compound metabolized
//
Molecule: CC(C)NCC(O)c1ccc(NS(C)(=O)=O)cc1 (centres undefined)
Value reported: Compound NOT metabolized
//
Molecule: OCCN(CCO)c1nc(N2CCCCC2)c2nc(N(CCO)CCO)nc(N3CCCCC3)c2n1
Value reported: Compound NOT metabolized
//
Molecule: CN(C)C(=O)Oc1cc(OC(=O)N(C)C)cc(C(O)CNC(C)(C)C)c1 (centres undefined)
Value reported: Compound NOT metabolized
//
Molecule: CC[C@@H](CO)NC(=O)[C@@H]1C=C2c3cccc4c3c(cn4C)C[C@H]2N(C)C1.O=C(O)/C=C\C(=O)O [METHYSERGIDE MALEATE]
Value reported: Compound metabolized
//
Molecule: CN(C)CCC=C1c2ccccc2COc2ccccc21 [DOXEPIN]
Value reported: Compound NOT metabolized
//
Molecule: CN(CCOc1ccc(CC2SC(=O)NC2=O)cc1)c1ccccn1.O=C(O)/C=C\C(=O)O (centres undefined) [ROSIGLITAZONE MALEATE]
Value reported: Compound NOT metabolized

---

- Experimental details: The drug is tested on Bacteroides fragilis strain: HMW615 for biotransformation. The drug concentrations were measured before and after a 12-h incubation by liquid-chromatography-coupled mass spectrometry (LC–MS)
- Measurement conditions: 2 µM
Observation type: Bacterial Biotransformation

Compound: CC(=O)Oc1ccc(C(c2ccc(OC(C)=O)cc2)c2ccccn2)cc1
Value reported: Compound metabolized
//
Compound: Nc1nc(N)nc(-c2cc(Cl)ccc2Cl)n1.O=C(O)/C=C\C(=O)O [IRSOGLADINE MALEATE]
Value reported: Compound NOT metabolized
//
Compound: CCN(CC)CCNC(=O)c1cc(S(C)(=O)=O)ccc1OC [TIAPRIDE]
Value reported: Compound NOT metabolized
//
Compound: CN(C)C(=O)C(CCN1CCC(O)(c2ccc(Cl)cc2)CC1)(c1ccccc1)c1ccccc1 [LOPERAMIDE]
Value reported: Compound NOT metabolized
//
Compound: CC(C)OC(=O)C(C)(C)Oc1ccc(C(=O)c2ccc(Cl)cc2)cc1 [FENOFIBRATE]
Value reported: Compound NOT metabolized
//
Compound: CC(=O)O[C@H]1C(=O)[C@@]2(C)[C@H]([C@H](OC(=O)c3ccccc3)[C@]3(O)C[C@H](OC(=O)[C@H](O)[C@@H](NC(=O)c4ccccc4)c4ccccc4)C(C)=C1C3(C)C)[C@]1(OC(C)=O)CO[C@@H]1C[C@@H]2O
Value reported: Compound NOT metabolized
//
Compound: CC(C(=O)O)c1ccc2c(c1)Cc1cccnc1O2 (stereo not drawn)
Value reported: Compound metabolized
//
Compound: COc1cc2nc(N(C)CCCNC(=O)C3CCCO3)nc(N)c2cc1OC (stereo not drawn)
Value reported: Compound NOT metabolized
//
Compound: N#Cc1ccc2c(c1)N(CCCN1CCC(O)CC1)c1ccccc1S2
Value reported: Compound NOT metabolized
//
Compound: CN(C)CCOC(c1ccc(Cl)cc1)c1ccccn1.O=C(O)/C=C\C(=O)O (stereo not drawn) [CARBINOXAMINE MALEATE]
Value reported: Compound NOT metabolized
//
Compound: CCc1oc2ccccc2c1C(=O)c1cc(Br)c(O)c(Br)c1
Value reported: Compound NOT metabolized
//
Compound: Clc1cccc(Cl)c1N=C1NCCN1
Value reported: Compound metabolized
//
Compound: CCN(C)C(=O)Oc1cccc([C@H](C)N(C)C)c1.O=C(O)C(O)C(O)C(=O)O [RIVASTIGMINE TARTRATE]
Value reported: Compound NOT metabolized
//
Compound: CC(C)(C(=O)O)c1ccc(C(O)CCCN2CCC(C(O)(c3ccccc3)c3ccccc3)CC2)cc1 (stereo not drawn) [FEXOFENADINE]
Value reported: Compound NOT metabolized
//
Compound: CC1=C(CC(=O)O)c2cc(F)ccc2/C1=C\c1ccc([S+](C)[O-])cc1 (stereo not drawn)
Value reported: Compound NOT metabolized
//
Compound: CN1CCc2c(c3ccccc3n2Cc2ccccc2)C1.CN1CCc2c(c3ccccc3n2Cc2ccccc2)C1.O=S(=O)(O)c1cccc2c(S(=O)(=O)O)cccc12
Value reported: Compound NOT metabolized
//
Compound: CC(C)NCC(O)COc1ccc(COCCOC(C)C)cc1.CC(C)NCC(O)COc1ccc(COCCOC(C)C)cc1.O=C(O)/C=C/C(=O)O (stereo not drawn) [BISOPROLOL FUMARATE]
Value reported: Compound NOT metabolized
//
Compound: COc1cc(C(=O)NCc2ccc(OCCN(C)C)cc2)cc(OC)c1OC [TRIMETHOBENZAMIDE]
Value reported: Compound NOT metabolized
//
Compound: CCCN1C[C@H](CSC)C[C@@H]2c3cccc4[nH]cc(c34)C[C@H]21.CS(=O)(=O)O [PERGOLIDE MESYLATE]
Value reported: Compound NOT metabolized
//
Compound: Nc1nc2ccc(OC(F)(F)F)cc2s1
Value reported: Compound metabolized
//
Compound: CC(CCc1ccccc1)NCC(O)c1ccc(O)c(C(N)=O)c1 (stereo not drawn)
Value reported: Compound NOT metabolized
//
Compound: CS(=O)(=O)O.OC(CCN1CCCCC1)(c1ccccc1)c1ccccc1 [PRIDINOL METHANESULFONATE]
Value reported: Compound NOT metabolized
//
Compound: OCCOCCN1CCN(C2=Nc3ccccc3Sc3ccccc32)CC1
Value reported: Compound NOT metabolized
//
Compound: Cc1ccc(S(=O)(=O)NC(=O)NN2CCCCCC2)cc1 [TOLAZAMIDE]
Value reported: Compound metabolized
//
Compound: CCCc1nn(C)c2c(=O)[nH]c(-c3cc(S(=O)(=O)N4CCN(C)CC4)ccc3OCC)nc12.O=C(O)CC(O)(CC(=O)O)C(=O)O [SILDENAFIL CITRATE]
Value reported: Compound NOT metabolized
//
Compound: c1ccc2[nH]c(-c3cscn3)nc2c1
Value reported: Compound NOT metabolized
//
Compound: CCN(CC)CCOCCOC(=O)C1(c2ccccc2)CCCC1.O=C(O)CC(O)(CC(=O)O)C(=O)O [CARBETAPENTANE CITRATE]
Value reported: Compound NOT metabolized
//
Compound: Cc1ccc(/C(=C\CN2CCCC2)c2ccccn2)cc1
Value reported: Compound NOT metabolized
//
Compound: COc1ccc(/C=C/C(=O)Nc2ccccc2C(=O)O)cc1OC
Value reported: Compound NOT metabolized
//
Compound: CC(C)(C)NCC(O)COc1cccc2c1CC(O)C(O)C2 (stereo not drawn)
Value reported: Compound NOT metabolized
//
Compound: CC(=O)OCC(=O)[C@@]1(O)[C@@H](C)C[C@H]2[C@@H]3CCC4=CC(=O)C=C[C@]4(C)[C@@]3(F)[C@@H](O)C[C@@]21C [BETAMETHASONE ACETATE]
Value reported: Compound metabolized
//
Compound: O=C(CCCN1CCC2(CC1)C(=O)NCN2c1ccccc1)c1ccc(F)cc1
Value reported: Compound NOT metabolized
//
Compound: CCN(CC)CCNC(C(=O)OCCC(C)C)c1ccccc1.Cl.Cl (stereo not drawn)
Value reported: Compound NOT metabolized
